System: UniProt Q12809
Sequence (Q12809 whole entry): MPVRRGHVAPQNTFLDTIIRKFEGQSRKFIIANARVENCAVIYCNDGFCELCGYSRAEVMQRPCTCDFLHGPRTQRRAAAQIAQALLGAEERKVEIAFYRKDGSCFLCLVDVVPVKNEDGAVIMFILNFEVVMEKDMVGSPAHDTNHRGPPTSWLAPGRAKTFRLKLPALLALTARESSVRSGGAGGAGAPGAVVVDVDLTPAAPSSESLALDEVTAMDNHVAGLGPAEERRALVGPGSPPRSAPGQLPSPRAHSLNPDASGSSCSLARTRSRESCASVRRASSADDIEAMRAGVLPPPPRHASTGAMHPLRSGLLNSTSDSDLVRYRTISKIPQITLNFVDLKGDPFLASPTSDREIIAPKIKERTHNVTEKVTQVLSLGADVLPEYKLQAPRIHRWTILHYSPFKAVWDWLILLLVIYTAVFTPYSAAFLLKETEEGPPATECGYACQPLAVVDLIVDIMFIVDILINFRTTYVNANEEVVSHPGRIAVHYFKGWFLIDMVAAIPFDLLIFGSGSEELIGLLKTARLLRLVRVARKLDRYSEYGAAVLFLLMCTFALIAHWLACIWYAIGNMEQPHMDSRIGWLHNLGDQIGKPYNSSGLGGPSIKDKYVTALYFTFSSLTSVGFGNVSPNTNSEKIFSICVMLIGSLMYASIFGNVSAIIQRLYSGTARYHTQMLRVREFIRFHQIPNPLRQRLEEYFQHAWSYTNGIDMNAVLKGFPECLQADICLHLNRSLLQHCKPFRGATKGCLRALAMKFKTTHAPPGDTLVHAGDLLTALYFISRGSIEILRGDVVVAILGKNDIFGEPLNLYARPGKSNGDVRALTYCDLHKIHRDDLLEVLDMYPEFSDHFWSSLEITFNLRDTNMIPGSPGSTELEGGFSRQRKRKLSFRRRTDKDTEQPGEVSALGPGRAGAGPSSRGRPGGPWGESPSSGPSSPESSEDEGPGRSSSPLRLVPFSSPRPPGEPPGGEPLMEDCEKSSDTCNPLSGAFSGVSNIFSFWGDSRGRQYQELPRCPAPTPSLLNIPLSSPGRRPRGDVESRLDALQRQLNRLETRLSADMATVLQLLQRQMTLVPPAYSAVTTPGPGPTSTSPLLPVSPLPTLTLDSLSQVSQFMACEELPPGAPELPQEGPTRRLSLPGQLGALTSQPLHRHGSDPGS
Test summary: Inhibition of human ERG at 10 uM
Readout: inhibition at 10 µM (%)
Numeric only. Scale: %

Prompt line: What does the record list as inhibition at 10 µM for `C[C@]1(C(=O)N(CCCC(=O)O)Cc2cccc(Cl)c2)CCN1C(=O)c1csc2ccccc12` ?
Response line: 0

====

Test summary: Volume of distribution at steady state in Sprague-Dawley rat at 1 mg/kg, iv
Type: ADME, organism-based
Parameters: dose 1 mg/kg, route intravenous
Protocol conditions: in vivo, read-out: Vdss
Readout: Vd (L/kg)
Numeric only. Scale: L/kg

Prompt line: What does the record list as Vd for `C[C@]1(C(=O)N(CCCC(=O)O)Cc2cccc(Cl)c2)CCN1C(=O)c1csc2ccccc12` ?
Response line: 3.2
